Target Or System: Fibroblast growth factor 2 (Homo sapiens)
Protocol Text: FGF2 binders on small-molecule microarrays, primary screen, biochemical, small-molecule microarray, 635/667 nm fluorescence (AID 1133)
Experimental Context: small-molecule microarray binding, FGF2, fluorescence 635/667; higher = more signal
Observable: composite z-score
Give only the figure.

Some compounds with recorded composite z-score:
Cc1ccc(S[C@]2(C(=O)NCCCN(C)C)CC(=O)N(Cc3ccccc3)[C@@H]2c2ccc(CO)cc2I)cc1
-1.33
C=C(CCCC)/C(=C/C[C@@H](OC(=O)c1ccncc1)c1cccc(OCCO)c1)c1cc(C(=O)OC)ccc1OC
0.627
CN1CCC(CCCO)=CC1C1CC1 (configuration not stated)
0.923

Data request, read-out composite z-score, for CC(=O)NCCCC[C@@H]1NC(=O)[C@@H]2C[C@H](C(=O)NCCCCCNC(=O)CS)[C@H](c3ccc(O)cc3)N2C1=O 0.746

How about this compound: Cc1ccc(S(=O)(=O)c2cc3oc2CC[C@@H](CO)NC(=O)N(C)Cc2cn(nn2)C[C@H](Cc2ccccc2)NC3=O)cc1 0.108

How about this compound: CCCC=C(CCC)[C@@H](NS(=O)(=O)c1ccc(-c2ccccc2)cc1)c1ccc(C(=O)OC)cc1 -0.624

How about this compound: O=C1O[C@@H](c2ccccc2)[C@@H](c2ccccc2)N2[C@@H](c3ccccc3OCCO)[C@]3(C(=O)Nc4ccc(C#CC5=CCCCC5)cc43)[C@@H](C(=O)O)[C@H]12 0.301

How about this compound: CCN1C(C)=C(C(=O)OC)[C@@H](c2ccccc2)N2C(=O)[C@](O)(C(=O)OC)[C@@H](c3ccccc3)C(C(C)=O)=C12 1.05

How about this compound: O=C1O[C@H](c2ccccc2)[C@H](c2ccccc2)N2[C@H]1[C@@H](C(=O)Nc1nc3ccccc3s1)[C@]1(C(=O)Nc3ccc(C#CC4=CCCCC4)cc31)[C@H]2c1ccccc1OCCO 1.2

* * *

List of composite z-score values.
System: Chordin-like protein 2 (CHRDL2)
Protocol Text: CHRDL2 small-molecule binders, primary screen, biochemical, small-molecule microarray, 635 nm fluorescence (AID 1126);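 further: printed compound slides probed with Chrdl2 protein at 4 µg/mL for 1 h at 4 C; score merges 667 nm emission intensity with signal to noise over three replicate slides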
Experimental Context: small-molecule microarray binding, fluorescence 635 nm; higher = more signal
Give only the figure.

Some compounds with recorded composite z-score:
C#CCNC(/C=C/c1ccccc1)CO (centres undefined)
0.3
C=CC(=O)O[C@@H](Cc1ccccc1)[C@H]1C2C=CCCC=C2CN1Cc1cccc(Cl)c1 (some centres undefined)
-0.605
C=CC[C@@]12N=C(c3ccc(OCCCO)cc3)O[C@@H]1c1ccccc1CN(Cc1ccccc1)C2=O
0.213
[N-]=[N+]=NCc1ccccc1C[C@]1(C(=O)N2CCCCC2)N=C(c2ccc(OCCCO)cc2)O[C@H]1c1ccccc1CN=[N+]=[N-]
-0.914
CCOC(=O)C[C@H]1[C@H](OC(=O)Cc2ccc3c(c2)OCO3)[C@@H](NC(=O)CC(C)C)c2cc(OCCCO)ccc2N1C(=O)c1ccccc1
0.133

Chordin-like protein 2 (CHRDL2) / composite z-score / O=C1c2ccccc2[C@](Cc2ccccc2I)(C(=O)NCC(F)(F)F)[C@H](c2ccc(CO)cc2)N1Cc1ccccc1C(F)(F)F : value? -0.324

How about this compound: C=C(COC)/C(=C/C[C@@H](OC(C)=O)c1cccc(OCCO)c1)c1cc(C(=O)OC)ccc1OC -0.458

How about this compound: CC(C)N1CC=CC23O[C@@H]4/C=C\CCCOC(=O)C4[C@H]2C(=O)N(CCO)[C@@H]3C1=O (some centres undefined) -1.4

How about this compound: C=CCN1C(=O)[C@@]2(O[C@@H](CCn3cc([C@H](O)c4ccccc4)nn3)[C@H]([Si](C)(C)c3ccc(OC)cc3)[C@H]2C)c2cc(N3CCOC3=O)ccc21 -0.0548

How about this compound: CCc1cccc(NC(=O)O[C@H]2[C@H](OC(=O)Nc3ccccc3)[C@@H](OC(=O)Nc3ccccc3)[C@@H](OC)O[C@@H]2CO)c1 -0.061

How about this compound: COCCOC(=O)N1C(=O)[C@@]2(c3cc(C#CC4=CCCCC4)ccc31)[C@H](c1ccc(O)cc1)N1[C@H](c3ccccc3)[C@H](c3ccccc3)OC(=O)[C@H]1[C@@H]2C(=O)N1CCCCCCC1 0.729

How about this compound: C=CCNC(=O)[C@H]1[C@@H]2C(=O)O[C@@H](c3ccccc3)[C@@H](c3ccccc3)N2[C@@H](c2ccc(O)cc2)[C@]12C(=O)Nc1ccc(C#CCNC(N)=O)cc12 -1.02

* * *

Protocol Text: anti-His antibody binders, primary screen, artefact control for SMM control protein annotation, biochemical, small-molecule microarray, 635 nm fluorescence (AID 1128);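 further: score merges feature fluorescence with signal-to-noise for each printed compound spot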
Experimental Context: anti-His Alexa647 antibody binding, higher = more signal
List of composite z-score values.

CCCNC(=O)[C@@H]1c2ccccc2C(=O)N(C2CCCCC2)[C@H]1c1ccc(CO)cc1
2.26
CC/C=C/C(=O)N(C[C@@H]1CCCO1)[C@@H]1CC(C(=O)NCCO)=C[C@H](Oc2c(I)cc(CO)cc2OC)[C@H]1O
0.224

Data request, read-out composite z-score, for CCCC[C@H]1OB(O)C[C@H]2C1=C(COC)C[C@H]1C(=O)N(Cc3ccccc3)C(=O)[C@H]12 -0.438

How about this compound: C=C(C)[C@@H]1CC=C(C(O)C2C=CC3C(=O)NC(=O)C3N2Nc2ccccn2)CC1 (stereo partly specified) 2.31

How about this compound: CCCC[C@@H]1C[C@H]1[C@@H](NC(=O)c1cccs1)c1ccc(Cl)cc1 -0.492

How about this compound: C#CCCCON=C1C[C@@H](O)[C@@H](O)[C@@H]2[C@@H]3C(=O)N(Cc4ccc5c(c4)OCO5)C(=O)[C@@H]3CC[C@@H]12 2.73

* * *

Protocol Text: binders of probe aHhip on microarray, primary screen, stem cell growth factor project, biochemical, small-molecule microarray, fluorescence 635/667 (AID 1087);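 further: score merges spot fluorescence at 667nm with spot signal to noise ratio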
Experimental Context: higher = more signal
List of composite z-score values.
Give only the figure.

Some molecules with recorded composite z-score:
CCOC(=O)C1=C[C@@H](c2ccccc2)N(S(=O)(=O)c2ccc(C)cc2)[C@H]1c1ccc(F)cc1
0.0139
O=C1O[C@H](c2ccccc2)[C@H](c2ccccc2)N2[C@H]1[C@@H](C(=O)NC[C@H](O)c1ccccc1)[C@]1(C(=O)Nc3ccc(C#CC4(O)CCCCCC4)cc31)[C@H]2c1ccc(OCCO)cc1
0.0024

Next, consider the following molecule.
Data request, read-out composite z-score, for N#Cc1ccc(NN2C(C(O)c3ccc(I)cc3)C=CC3C(=O)N(c4ccccc4)C(=O)C32)cc1 (stereo not drawn) 0.0854

* * *

Protocol Text: CREB reporter modulators under forskolin, primary screen, cell-based, PC12, CRE-LacZ reporter, forskolin-stimulated (AID 1146);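 further: PC12 cells with 6xCRE LacZ reporter stimulated by forskolin 10 µM; beta-galactosidase reporter signal reflecting CREB driven transcription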
Experimental Context: luminescence, 4.5 h, higher = more signal, called active from +8 up or from −8 down
Parameter threshold = -0.8. Response is label 1 when z-score meets or exceeds it, else label 0.

Look over these answered cases.
C=CCN1C(=O)[C@@]2(O[C@@H](CCn3cc([C@H](O)c4ccccc4)nn3)[C@H]([Si](C)(C)c3ccc(OC)cc3)[C@H]2C)c2cc(N3CCOC3=O)ccc21
label 0
C=CCNC(=O)[C@H]1[C@@H]2C(=O)O[C@@H](c3ccccc3)[C@@H](c3ccccc3)N2[C@@H](c2ccccc2OCCO)[C@]12C(=O)N(C(=O)OCCOC)c1ccc(C#CCNC(N)=O)cc12
label 1
CCOC(=O)C1=CCC(c2cccc3ccccc23)N(S(=O)(=O)c2ccc(C)cc2)C1 (stereo not given)
label 1
CC(C)CN1C(=O)[C@@]2(Cc3ccccc31)c1ccccc1C(=O)N(C1CCCCC1)[C@H]2c1ccc(CO)cc1
label 0
C=CCC1=C[C@H]2[C@H]([C@@H]3C=C[C@]2(CC=C)C(=O)[C@]32CO2)[C@@]2(CO2)C1=O
label 1
C=CCNC(=O)[C@@H]1[C@H]2C(=O)O[C@H](c3ccccc3)[C@H](c3ccccc3)N2[C@H](c2ccc(OCCO)cc2)[C@@]12C(=O)N(C(=O)OCCOC)c1ccc(C#CC3(O)CCCCCC3)cc12
label 0
C[C@@H]1CC[C@H]2C(=O)N3[C@@H](CC[C@@H](C)[C@@H]3c3cccc(N4CCOCC4)c3)C(=O)N2[C@H]1c1cccc(N2CCOCC2)c1
label 0
COCCOC(=O)N1C(=O)[C@@]2(c3cc(C#CCNC(N)=O)ccc31)[C@H](c1ccc(OCCO)cc1)N1[C@H](c3ccccc3)[C@H](c3ccccc3)OC(=O)[C@H]1[C@@H]2C(=O)Nc1nc2ccccc2s1
label 0
C=C(CCCC)/C(=C/C[C@@H](OC(=O)c1ccncc1)c1cccc(OCCO)c1)c1cc(C(=O)OC)ccc1OC
label 0
COCC(=C=CC[C@H](O)c1ccc(OCCO)cc1)C[C@H](O)c1ccccn1
label 0

Could you verify whether the entry CO[C@@H]1COC(=O)[C@H](C)NC(=O)CC=C[C@@H](C)[C@H](OC)COC(=O)[C@H](C)NC(=O)CC=C[C@H]1C shows z-score of no less than -0.8? label 1

How about this compound: COc1cccc([C@@H]2[C@@H](C)CC[C@H]3C(=O)N(C)[C@@H](C(C)C)C(=O)N23)c1 label 1

How about this compound: COc1ccc(C(=O)Nc2ccc(CN3C(=O)[C@]4(O[C@H](CCn5cc(CCO)nn5)[C@@H]([Si](C)(C)c5ccc(OC)cc5)[C@@H]4C)c4ccccc43)cc2)cc1 label 0

How about this compound: Cc1ccc(S(=O)(=O)N[C@H]2COC(=O)CC=C[C@H](C)COC(=O)N[C@@H](C)C(=O)CC=C[C@@H]2C)cc1 label 0

This collection of values is drawn from PubChem BioAssay.
